- RUN_DESCRIPTION: Inhibition of bovine heart mitochondrial NADH oxidase
MEASURE_NAME: IC50

Requested field: IC50. Item: CC(C)(C)c1ccc(CCNc2ncnc3c(O)cccc23)cc1
230 nM

====

- RUN_DESCRIPTION: Inhibition of NADH fumarate reductase in Echinococcus multilocularis protoscolece
MEASURE_NAME: pIC50
API: returns pIC50 as number; meaning -log10 of concentration in mol/L.

Guide cases for pIC50, answers given:
1) COc1cccc2c(NCCc3ccc(C(C)(C)C)cc3)ncnc12: 7.32
2) CC(C)(C)c1ccc(CCNc2ncnc3cc(N)ccc23)cc1: 7.21
3) CC(C)(C)c1ccc(CCNc2ncnc3ccc(N)cc23)cc1: 8.68
4) CC(C)Oc1cccc2c(NCCc3ccc(C(C)(C)C)cc3)ncnc12: 6.04
5) CCOc1cccc2c(NCCc3ccc(C(C)(C)C)cc3)ncnc12: 5.39

Requested field: pIC50. Item: C=CC(=O)Nc1ccc2ncnc(NCCc3ccc(C(C)(C)C)cc3)c2c1
7.80

Requested field: pIC50. Item: c1ccc2ncncc2c1
8.64

Requested field: pIC50. Item: CC(C)(C)c1ccc(CCNc2ncnc3c(O)cccc23)cc1
7.15
